molecular target: DA Transporter (DAT) Sites in Mouse Brain (Mus musculus); construct: Striatum was used to determine occupancy of DA transporter sites; from tissue; host or cells: C57BL/6 mouse striatum homogenate; experiment: Ex vivo [3H] WIN 35428 binding after oral dosing; set-up: species or system C57BL/6 mice; conditions: 3 mg/kg, mice sacrificed 60 minutes after treatment, striatum
Each entry below carries its reported Mean Specific Binding (dpm) ± S.E.M., DAT.
measuredParameter: Mean Specific Binding (dpm) ± S.E.M., DAT

compound: CNC(C)C1(c2ccc3ccccc3c2)CCCCC1 (single isomer, unassigned) [58 E1]
targetEntity: DA Transporter (DAT) Sites in Mouse Brain (Mus musculus)
endpointUnit: dpm
reading: 14938
//
compound: CC(N(C)C)C1(c2ccc3ccccc3c2)CCCCC1 (single isomer, unassigned) [56 E1]
targetEntity: DA Transporter (DAT) Sites in Mouse Brain (Mus musculus)
endpointUnit: dpm
reading: 42127
//
compound: CN(C)CC1(c2ccc(Cl)c(Cl)c2)CCC(C)(O)CC1 (stereo not drawn)
targetEntity: DA Transporter (DAT) Sites in Mouse Brain (Mus musculus)
endpointUnit: dpm
reading: 34136
//
compound: CNC(C)C1(c2ccc(Cl)c(Cl)c2)CCCCC1.Cl (single isomer, unassigned) [48 E1, hydrochloride]
targetEntity: DA Transporter (DAT) Sites in Mouse Brain (Mus musculus)
endpointUnit: dpm
reading: 18039
//
compound: CNCC1(c2ccc(Cl)c(Cl)c2)CCC(C)(O)CC1 (stereo not drawn)
targetEntity: DA Transporter (DAT) Sites in Mouse Brain (Mus musculus)
endpointUnit: dpm
reading: 16312
//
compound: CN(C)C[C@]1(c2ccc3ccccc3c2)CC[C@](C)(O)CC1
targetEntity: DA Transporter (DAT) Sites in Mouse Brain (Mus musculus)
endpointUnit: dpm
reading: 21666

----------
target: dopamine transporter (Rattus norvegicus); construct: synaptosomes isolated in a 0.32 M sucrose buffer from a male Wistar rat striatum; from tissue; host or cells: male Wistar rat striatum synaptosomes; experiment: biochemical; settings: rat synaptosomes, dopamine transporter (DAT); read-out: Rat IC50 (nM) rDAT
Each entry below carries its reported IC50.

molecule: COC1CCC(CN(C)C)(c2ccc(Cl)c(Cl)c2)CC1 (centres unmarked)
IC50 [nM]: 990
--
molecule: NCC1(c2cccc3ccccc23)CCCCC1
IC50 [nM]: 1900

----------
target: human dopamine reuptake transporter (Homo sapiens, UniProt Q01959); construct: expressed in transfected cells; host or cells: CHO-K1 or HEK293; assay: cell-based; conditions: recombinant human dopamine transporter (DAT); read-out: Human IC50 (nM) hDAT
measuredParameter: IC50 (nM)

compound: CNCC1(c2ccc3ccccc3c2)CCC(O)(CF)CC1 (stereo not drawn) [Compound 245]
targetEntity: human dopamine reuptake transporter (Homo sapiens, UniProt Q01959)
endpointUnit: nM
cmp: =
reading: 2270
--
compound: NCC1(c2ccc3ccccc3c2)CCC(F)(F)CC1
targetEntity: human dopamine reuptake transporter (Homo sapiens, UniProt Q01959)
endpointUnit: nM
cmp: =
reading: 182
--
compound: NCC1(c2ccc3cc(F)ccc3c2)CCCCC1
targetEntity: human dopamine reuptake transporter (Homo sapiens, UniProt Q01959)
endpointUnit: nM
cmp: =
reading: 2240
--
compound: CCC1(O)CCC(CNC)(c2ccc(Cl)c(Cl)c2)CC1 (stereo not drawn) [Compound 282]
targetEntity: human dopamine reuptake transporter (Homo sapiens, UniProt Q01959)
endpointUnit: nM
cmp: =
reading: 186
--
compound: CNCC1(c2ccc(OC(F)(F)F)cc2)CCCCC1O (single isomer, unassigned) [146 E1]
targetEntity: human dopamine reuptake transporter (Homo sapiens, UniProt Q01959)
endpointUnit: nM
cmp: >
reading: 10000
--
compound: CNCC1(c2ccc(Cl)c(Cl)c2)CCC(C)(O)CC1 (stereo not drawn)
targetEntity: human dopamine reuptake transporter (Homo sapiens, UniProt Q01959)
endpointUnit: nM
cmp: =
reading: 528
--
compound: NCC1(c2ccc3ccccc3c2)CC=CCC1 (racemic)
targetEntity: human dopamine reuptake transporter (Homo sapiens, UniProt Q01959)
endpointUnit: nM
cmp: =
reading: 72
--
compound: CN(C)CC1(c2ccc3ccccc3c2)CCC(O)(CF)CC1 (stereo not drawn) [Compound 244]
targetEntity: human dopamine reuptake transporter (Homo sapiens, UniProt Q01959)
endpointUnit: nM
cmp: =
reading: 334
--
compound: CNC(C)C1(c2ccc3ccccc3c2)CCC(C)(O)CC1 (single isomer, unassigned) [231 E2]
targetEntity: human dopamine reuptake transporter (Homo sapiens, UniProt Q01959)
endpointUnit: nM
cmp: =
reading: 83

----------
molecular target: Norepinephrine Transporter (NET) Sites in Mouse Brain (Mus musculus, UniProt O55192); settings: 10 mg/kg, PO; 60 minutes after treatment; vs vehicle
measuredParameter: % Transporter Occupancy, NET

molecule: CN(C)C[C@]1(c2ccc3ccccc3c2)CC[C@](C)(O)CC1
measuredParameter: % Transporter Occupancy, NET
reading: 75%
//
molecule: CC(N(C)C)C1(c2ccc3ccccc3c2)CCCCC1 (single isomer, unassigned) [56 E1]
measuredParameter: % Transporter Occupancy, NET
reading: 86%
//
molecule: CNCC1(c2ccc(Cl)c(Cl)c2)CCC(C)(O)CC1 (stereo not shown)
measuredParameter: % Transporter Occupancy, NET
reading: -1%
//
molecule: CN(C)CC1(c2ccc(Cl)c(Cl)c2)CCC(C)(O)CC1 (stereo not shown)
measuredParameter: % Transporter Occupancy, NET
reading: 47%

----------
target: human serotonin reuptake transporter (Homo sapiens, UniProt P31645); test: cell-based; conditions: read-out: Human IC50 (nM) hSERT

compound: CN(C)CC1(c2ccc(Cl)c(Cl)c2)CCC2(CC1)OCCO2 [Compound 271]
endpointUnit: nM
cmp: =
IC50: 79
//
compound: CCCC1(O)CCC(CN(C)C)(c2ccc(Cl)c(Cl)c2)CC1 (stereo not drawn) [Compound 286]
endpointUnit: nM
cmp: =
IC50: 46
//
compound: CN(C)CC1(c2ccc(Cl)c(Cl)c2)CCC(Oc2ccccc2)CC1 (stereo not drawn) [Compound 266]
endpointUnit: nM
cmp: =
IC50: 168
//
compound: CNCC1(c2ccc3ccccc3c2)CC=CCC1 (racemic) [Compound 292]
endpointUnit: nM
cmp: =
IC50: 360
//
compound: CN(C)CC1(c2ccc(Cl)c(Cl)c2)CCC(F)CC1 (stereo not drawn) [Compound 261]
endpointUnit: nM
cmp: =
IC50: 30
//
compound: NCC1(c2ccc(Cl)c(Cl)c2)CCC(O)CC1 (stereo not drawn) [Compound 262]
endpointUnit: nM
cmp: >
IC50: 10000

----------
Each entry below carries its reported Mouse Locomotor Activity Total Distance Traveled ± S.E.M..
test system: mice; assay: Mouse locomotor activity; type: in vivo; conditions: 30 mg/kg, PO
measuredParameter: Mouse Locomotor Activity Total Distance Traveled ± S.E.M.

compound: CNCC1(c2ccc(Cl)c(Cl)c2)CCC(C)(O)CC1 (stereo not shown) [Compound 276]
reading: 607.8
--
compound: CN(C)C[C@]1(c2ccc3ccccc3c2)CC[C@](C)(O)CC1 [Compound 225]
reading: 177.4
--
compound: CNCC1(c2ccc(Cl)c(Cl)c2)CCCCC1.Cl [Compound 75]
reading: 655.3
--
compound: CCC(N)C1(c2ccc(Cl)c(Cl)c2)CCCCC1 (single isomer, unassigned) [17 E1]
reading: 428.3

----------
target: 5-HT Transporter (SERT) Sites in Mouse Brain (Mus musculus, UniProt Q60857); construct: Whole brains were removed and cortex and striata dissected out; from tissue; host or cells: C57BL/6 mouse frontal cortex homogenate; assay: Ex vivo [3H] citalopram binding after oral dosing; set-up: species or system C57BL/6 mice; conditions: 3 mg/kg, 60 minutes after treatment, vs vehicle
measuredParameter: % Transporter Occupancy, SERT

compound: CN(C)C[C@]1(c2ccc3ccccc3c2)CC[C@](C)(O)CC1
reading: 54%

compound: CNCC1(c2ccc(Cl)c(Cl)c2)CCC(C)(O)CC1 (centres unmarked)
reading: 14%

compound: CNC(C)C1(c2ccc3ccccc3c2)CCCCC1 (single isomer, unassigned) [58 E1]
reading: 11%

compound: CN(C)CC1(c2ccc(Cl)c(Cl)c2)CCC(C)(O)CC1 (centres unmarked)
reading: -5%

compound: CC(N(C)C)C1(c2ccc3ccccc3c2)CCCCC1 (single isomer, unassigned) [56 E1]
reading: 58%

----------
biological target: human dopamine reuptake transporter (Homo sapiens); construct: expressed in transfected cells; host or cells: CHO-K1 or HEK293; experiment: cell-based; details: recombinant human dopamine transporter (DAT); read-out: Human IC50 (nM) hDAT
Checkbox rule: IC50 lower than 100 nM = fulfilled; IC50 not lower than 100 nM = not fulfilled.

compound: CNCC1(c2ccc3c(c2)OCO3)CCC(O)CC1 (stereo not drawn) [Compound 237]
category: not fulfilled
--
compound: CNCC1(c2ccc(Cl)c(Cl)c2)CCC1 [Compound 42]
category: not fulfilled
--
compound: NCC1(c2ccc3ccccc3c2)CCC(F)CC1 (stereo not drawn) [Compound 212]
category: fulfilled
--
compound: NCC1(c2ccc(OC(F)(F)F)cc2)CCCCC1 [Compound 15]
category: not fulfilled
--
compound: NCC1(c2ccc(Cl)c(Cl)c2)CCC(O)C1 (stereo not drawn) [trans 167]
category: not fulfilled
